target: Histone-lysine N-methyltransferase EHMT2 (Homo sapiens) (UniProt Q96KQ7); assay: qHTS Assay for Inhibitors of Histone Lysine Methyltransferase G9a; conditions: G9a H3K9 monomethylation, AlphaScreen, 2 h; series mostly up to 59 µM; further: nearly all actives have a fitted effect of over 75% in size
Sequence (Q96KQ7 913-1193 limits assumed): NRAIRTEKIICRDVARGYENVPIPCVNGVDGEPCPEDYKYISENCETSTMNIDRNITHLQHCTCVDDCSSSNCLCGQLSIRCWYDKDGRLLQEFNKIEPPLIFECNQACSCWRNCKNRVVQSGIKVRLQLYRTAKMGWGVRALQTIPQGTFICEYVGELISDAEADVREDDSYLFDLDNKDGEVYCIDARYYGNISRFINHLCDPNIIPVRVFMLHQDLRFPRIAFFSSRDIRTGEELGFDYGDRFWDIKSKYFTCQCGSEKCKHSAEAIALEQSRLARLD
Among all 350,000 compounds or so, about 31,000 (8.9%) were called active. Not shown: some 15% with an inconclusive outcome. The call rests on the fitted dose curve; in most records, active means well fitted inhibition curve with a large enough effect; inconclusive means small, poorly fitted or top-dose-only effect; inactive means no such curve, though single readings can be large or run the other way. This excerpt belongs to a sample that is enriched for actives.
Classes used: active, inactive

- O=C(CN1C(=O)COc2ccccc21)Nc1ccc(F)cc1: active
- CSc1ccc(CCNC(=O)c2cnn(-c3ccccc3)c2-n2cccc2)cc1: inactive
- Cc1ccc(C)c(OCCC(=O)OCC(=O)NC(=O)NCc2ccccc2)c1: inactive
- COc1ccc(C(=O)CSc2c(C(C)C)cnc3c2c(=O)n(C)c(=O)n3C)cc1: inactive

---

target: Histone-lysine N-methyltransferase EHMT2 (Homo sapiens) (UniProt Q96KQ7); test: qHTS Assay for Inhibitors of Histone Lysine Methyltransferase G9a; settings: G9a H3K9 monomethylation, AlphaScreen, 2 h; series mostly up to 59 µM; further: nearly all actives have a fitted effect of over 75% in size
In all, about 350,000 compounds went through this assay and about 31,000 (8.9%) were called active. Inconclusive results (about 15%) are left out. Calls follow the shape of the dose curve; as a rule, active = well fitted inhibition curve with a large enough effect; inconclusive = small, poorly fitted or top-dose-only effect; inactive = no such curve, though single readings can be large or run the other way. Many of the other results were omitted from the sample, so actives are more common in it than they were.
Outcome codes: True for active, False for inactive

• COC(=O)c1cccc(C(=O)N2CCC(CCC(=O)NCc3ccc(F)cc3)CC2)c1 = False
• CCOc1ccc(OCC)c(NC(=O)C(NS(=O)(=O)c2ccc3c(c2)oc(=O)n3C)C(C)C)c1 (configuration not stated) = True
• COc1ccccc1CNC(=O)C(Cc1ccccc1)NS(=O)(=O)c1ccc2c(c1)oc(=O)n2C (configuration not stated) = False
• CCC(c1nnnn1C1CCCC1)N1CCN(C(=O)c2ccco2)CC1 (configuration not stated) = True
• CCOc1ccc(N2CC(C(=O)NCc3ccccn3)CC2=O)cc1 (configuration not stated) = False
• CC(C)C(c1nnnn1C1CCCCC1)N1CCN(C(=O)c2ccco2)CC1 (configuration not stated) = False
• Cc1ccc(NC(=O)c2ccc(CN3CC(=O)N4CCCCC4C3=O)cc2)c(Cl)c1 (configuration not stated) = False
• Cc1cc(C)nc(N/N=C/c2ccc([N+](=O)[O-])o2)n1 = False
• CC(NS(=O)(=O)c1ccc(OCC(=O)N2CCCC2)cc1)c1ccccc1 (configuration not stated) = False
• O=C(CCC1N=C2c3ccccc3N=C(SCc3ccccc3F)N2C1=O)NCCc1ccccc1 (configuration not stated) = False
• CCCCN(CC)CCCNC(=O)c1nn(C)c2c1CS(=O)(=O)c1ccccc1-2 = False
• CCCCC[C@H]1CN(C2CCCCC2)C(=O)[C@@H]1CC(=O)NCc1ccc(OC)cc1 = False
• Cc1ccc2nc3c(cc(C(=O)NC4CCCCC4)c(=N)n3C(C)C)c(=O)n2c1 = False
• COc1cccc(-c2nnc3n(CCc4ccccc4)c(=O)c4ccccc4n23)c1O = False
• CN(CC#CCC(c1ccccc1)c1ccccc1)C(C)(C)C = False
• Cc1oc(-c2ccccc2F)nc1CS(=O)CC(=O)NCCN1CCCCC1C (configuration not stated) = False
• Cc1ccc(C(=O)c2c(NC(=O)c3ccncc3)sc3c2CCCC3)cc1 = True

---

activity, negative = inhibition listing for selected compounds.
target: Histone-lysine N-methyltransferase EHMT2 (Homo sapiens); experiment: qHTS Assay for Inhibitors of Histone Lysine Methyltransferase G9a; details: G9a H3K9 monomethylation, AlphaScreen, 2 h; series mostly up to 59 µM; further: nearly all actives have a fitted effect of over 75% in size; on activity, negative = inhibition: on the % scale 0 is the no-effect control and ±100 the full control effect
Among all 350,000 compounds or so, about 31,000 (8.9%) were called active. Not shown: some 15% with an inconclusive outcome. Shown is part of a subset that was picked to be rich in actives.
assay-metric: activity, negative = inhibition

• O=C1C=C(c2ccnc3cc(Cl)ccc23)C[C@@H](c2ccc3c(c2)OCO3)C1 = -18.7% [at 0.501 µM] (inactive)
• Cc1ccc(F)cc1NC(=O)c1ccc2c(c1)OCO2 = -5.61% [at 12.7 µM] (inactive)
• CC(=O)c1c(C)[nH]c(C(=O)OCC(=O)Nc2c(C)cccc2C)c1C = -11.6% [at 12.7 µM] (inactive)
• Nc1ccn(CC(=O)N2CCN(c3ccccn3)CC2)c(=O)n1 = -0.804% [at 0.501 µM] (inactive)
• O=C(NNC(=O)c1ccc(-n2cncn2)c([N+](=O)[O-])c1)c1ccccc1 = 14.9% [at 12.7 µM] (inactive)
